Experiment: in vitro
Settings: human, CC50, uninfected A549 cells, CellTiter-Glo
CC50 reference

**Q:** Can you look up the measured CC50 of CC[C@H]1/C=C/COc2c(F)cccc2[C@H](c2ccccc2)N2CN1C(=O)c1c(O)c(=O)ccn12 (single isomer, unassigned) [Compound 85BA] for me?
**A:** > 1000 nM

###

Assay: in vitro
Settings: human, CC50, uninfected A549 cells, CellTiter-Glo
measure: CC50

O=C1c2c(O)c(=O)ccn2N2CN1C/C=C\COc1cc(F)ccc1[C@H]2c1ccccn1 (single isomer, unassigned) [Compound 71B] : > 20000 nM
O=C1c2c(O)c(=O)ccn2N2CN1CC/C=C/COc1cccc3c1[C@H]2c1ccccc1SC3 (single isomer, unassigned) [Compound 37D] : > 200 nM
CC[C@@H]1/C=C/COc2c(ccc(F)c2F)[C@@H](c2ccccn2)N2CN1C(=O)c1c(O)c(=O)ccn12 (single isomer, unassigned) [Compound 160AB] : > 100 nM

**Q:** CC50 for O=C1c2c(O)c(=O)ccn2N2CN1CCCCOc1ccccc1C2c1ccccc1 (stereo not drawn) [Compound 8] ?
**A:** > 2000 nM

**Q:** Item CC[C@@H]1/C=C/COc2c(ccc(Cl)c2F)[C@H](c2ccccc2)N2CN1C(=O)c1c(O)c(=O)ccn12 (single isomer, unassigned) [Compound 170AB] has what recorded CC50?
**A:** > 100 nM

**Q:** Given the entry O=C1c2c(O)c(=O)ccn2N2CN1C/C=C\COc1ccc(F)cc1[C@H]2c1ccccc1 (single isomer, unassigned) [Compound 22A] , report its measured CC50.
**A:** > 1000 nM

**Q:** Param item = O=C1c2c(O)c(=O)ccn2N2CN1CCCCOc1ccc(F)cc1[C@H]2c1cccc(F)c1 (single isomer, unassigned) [Compound 32A] ; retrieve measured CC50.
**A:** > 2000 nM

**Q:** Would you mind telling me what CC50 value was observed for O=C1c2c(O)c(=O)ccn2N2CN1C[C@H]1C[C@@H]1COc1c(ccc(F)c1F)[C@@H]2c1ccccc1 (single isomer, unassigned) [Compound 139AA] ?
**A:** 26900 nM

**Q:** Field request: CC50 | item: CC[C@H]1/C=C/COc2ccccc2[C@@H](c2ccccc2)N2CN1C(=O)c1c(O)c(=O)ccn12 [Compound 39BB]
**A:** > 2000 nM

**Q:** Field request: CC50 | item: CC[C@H]1/C=C/COc2cc(F)c(F)c3c2[C@@H](c2ccccc2SC3)N2CN1C(=O)c1c(O)c(=O)ccn12 (single isomer, unassigned) [Compound 126BA]
**A:** > 50 nM

**Q:** Which measured CC50 value corresponds to O=C1c2c(O)c(=O)ccn2N2CN1C[C@@H]1C[C@H]1COc1ccccc1[C@H]2c1ccccc1 (single isomer, unassigned) [Compound 80BB] ?
**A:** > 1000 nM

**Q:** What CC50 value was documented for this compound, O=C1c2c(O)c(=O)ccn2N2CN1CCCCCc1ccncc1[C@H]2c1ccccc1 (single isomer, unassigned) [Compound 34A] ?
**A:** > 2000 nM

###

Test: in vitro
Settings: human, CC50, uninfected A549 cells, CellTiter-Glo
measure: CC50

Example cases with answers are listed next.
O=C1c2c(O)c(=O)ccn2N2CN1C/C=C\COc1ccc(F)cc1[C@@H]2c1ccccc1 (single isomer, unassigned) [Compound 22B] : > 1000 nM
O=C1c2c(O)c(=O)ccn2N2CN1[C@@H](C(F)F)/C=C/COc1cccc3c1[C@@H]2c1ccccc1SC3 (single isomer, unassigned) [Compound 163BA] : > 100 nM

Now look at this entry.
**Q:** // lookup CC50 for C[C@@H]1N2C/C=C/COc3c(F)cccc3[C@@H](c3ccccc3)N1n1ccc(=O)c(O)c1C2=O (single isomer, unassigned) [Compound 91A]
**A:** > 1000 nM

###

Test: in vitro
Details: human, CC50, uninfected A549 cells, CellTiter-Glo
CC50 overview

O=C1c2c(O)c(=O)ccn2N2CN1CC/C=C\CCOc1ccccc1[C@H]2c1ccccc1 (single isomer, unassigned) [Compound 65C] : > 20000 nM
C[C@@H]1/C=C\COc2cccc3c2[C@H](c2ccccc2SC3)N2CN1C(=O)c1c(O)c(=O)ccn12 (single isomer, unassigned) [Compound 138BB] : > 200 nM

**Q:** // CC50 lookup, key: O=C1c2c(O)c(=O)ccn2N2CN1C/C=C\COc1ccccc1[C@H]2c1cccc(F)c1 (single isomer, unassigned) [Compound 63A]
**A:** > 2000 nM

**Q:** Using the record for O=C1c2c(O)c(=O)ccn2N2CN1C/C=C\COc1cccc3c1[C@H]2c1ccccc1OC3 (single isomer, unassigned) [Compound 53A] , report its CC50.
**A:** > 2000 nM

**Q:** // lookup CC50 for COc1ccccc1[C@@H]1c2cccc(F)c2OC/C=C\CN2CN1n1ccc(=O)c(O)c1C2=O (single isomer, unassigned) [Compound 117A]
**A:** > 200 nM

**Q:** // lookup CC50 for CC(C)[C@H]1/C=C/COc2ccccc2[C@H](c2ccccc2)N2CN1C(=O)c1c(O)c(=O)ccn12 (single isomer, unassigned) [Compound 132B]
**A:** > 200 nM

###

Assay: in vitro
Conditions: human, CC50, uninfected A549 cells, CellTiter-Glo
Quick list: CC50 per entry.

**Q:** Query: CC50; subject: CC[C@@H]1CCCOc2c(ccc(F)c2F)[C@H](c2ccccc2)N2CN1C(=O)c1c(O)c(=O)ccn12 (single isomer, unassigned) [Compound 164B]
**A:** > 0.1 µM

###

Test: in vitro
Conditions: human, CC50, uninfected A549 cells, CellTiter-Glo
measure: CC50

CSc1ccccc1[C@@H]1c2cccc(F)c2OC/C=C\CN2CN1n1ccc(=O)c(O)c1C2=O (single isomer, unassigned) [Compound 119B] : > 200 nM

**Q:** Return reported CC50; argument: O=C1c2c(O)c(=O)ccn2N2CN1CC/C=C\COc1cc(F)c(F)c3c1[C@@H]2c1ccccc1SC3 (single isomer, unassigned) [Compound 88A]
**A:** > 1000 nM

**Q:** Tell me the measured CC50 of O=C1c2c(O)c(=O)ccn2N2CN1C1(/C=C/COc3cc(F)c(F)c4c3[C@@H]2c2ncccc2SC4)CCC1 (single isomer, unassigned) [Compound 168A] , please.
**A:** > 100 nM

**Q:** What value of measured CC50 is listed for O=C1c2c(O)c(=O)ccn2N2CN1C1(/C=C/COc3cc(F)c(F)c4c3[C@H]2c2ccccc2SC4)CCC1 (single isomer, unassigned) [Compound 159B] ?
**A:** > 100 nM

**Q:** Please look up its CC50: O=C1c2c(O)c(=O)ccn2N2CN1C/C=C\COc1c(cccc1C(F)(F)F)[C@@H]2c1ccccc1 (single isomer, unassigned) [Compound 130B]
**A:** > 200 nM

**Q:** Given the entry C[C@@H]1/C=C/COc2ccccc2[C@@H](c2ccccc2)N2CN1C(=O)c1c(O)c(=O)ccn12 (single isomer, unassigned) [Compound 29AA] , report its measured CC50.
**A:** > 2000 nM

**Q:** Which value of CC50 has been reported for O=C1c2c(O)c(=O)ccn2N2CN1CCCCCc1ncccc1[C@@H]2c1ccccc1 (single isomer, unassigned) [Compound 23B] in the records?
**A:** > 1000 nM

**Q:** Which CC50 value belongs to O=C1c2c(O)c(=O)ccn2N2CN1C/C=C\COc1cc(F)c(F)cc1[C@@H]2c1ccccn1 (single isomer, unassigned) [Compound 70A] ?
**A:** > 20000 nM

**Q:** Recorded CC50 for O=C1c2c(O)c(=O)ccn2N2CN1C/C=C\COc1cc(F)c(F)cc1[C@H]2c1ccccc1 (single isomer, unassigned) [Compound 41A] , please?
**A:** > 2000 nM

**Q:** # get_value(readout='CC50', item= O=C1c2c(O)c(=O)ccn2N2CN1C[C@@H]1C[C@H]1COc1c(ccc(F)c1F)[C@@H]2c1ccccc1 (single isomer, unassigned) [Compound 139AB] )
**A:** 35900 nM

**Q:** Recorded CC50 for O=C1c2c(O)c(=O)ccn2N2CN1CC/C=C/COc1cc(F)c(F)c3c1[C@@H]2c1ccccc1SC3 (single isomer, unassigned) [Compound 88C] , please?
**A:** > 1000 nM

**Q:** For O=C1c2c(O)c(=O)ccn2N2CN1CCCCOc1c(F)cccc1[C@@H]2c1ccccc1 (single isomer, unassigned) [Compound 114B] , what is its reported CC50?
**A:** > 200 nM

**Q:** Find the recorded CC50 belonging to C[C@@H]1/C=C/COc2c(F)cccc2[C@H](c2ccccc2)N2CN1C(=O)c1c(O)c(=O)ccn12 (single isomer, unassigned) [Compound 141BA] and report it.
**A:** > 20000 nM

**Q:** Which CC50 is reported for this compound? CC[C@H]1/C=C/COc2c(ccc(Cl)c2F)[C@H](c2ccccc2)N2CN1C(=O)c1c(O)c(=O)ccn12 (single isomer, unassigned) [Compound 170AA]
**A:** > 100 nM

**Q:** // lookup CC50 for O=C1c2c(O)c(=O)ccn2N2CN1CC/C=C\COc1ccc(F)c3c1[C@@H]2c1cccc(F)c1SC3 (single isomer, unassigned) [Compound 151A]
**A:** > 100 nM

**Q:** Looking for the measured CC50 of C[C@H]1/C=C/COc2cccc3c2[C@@H](c2ccccc2SC3)N2CN1C(=O)c1c(O)c(=O)ccn12 (single isomer, unassigned) [Compound 138D] , can you help?
**A:** > 200 nM

**Q:** Endpoint output: CC50 of CC[C@H]1/C=C/COc2c(ccc(F)c2F)[C@@H](c2ccccn2)N2CN1C(=O)c1c(O)c(=O)ccn12 (single isomer, unassigned) [Compound 160AA] . Value?
**A:** > 100 nM

**Q:** Given Cc1c(F)ccc2c1OC/C=C\CN1CN([C@H]2c2ccccc2)n2ccc(=O)c(O)c2C1=O (single isomer, unassigned) [Compound 133B] , state its recorded CC50.
**A:** > 200 nM

**Q:** What measured CC50 goes with O=C1c2c(O)c(=O)ccn2N2CN1C1(/C=C/COc3ccccc3[C@@H]2c2ccccc2)CCC1 (single isomer, unassigned) [Compound 106B] ?
**A:** > 200 nM

**Q:** What does the data say about its CC50? Entry: CC(C)(C)[C@H]1/C=C/COc2cccc3c2[C@@H](c2ccccc2SC3)N2CN1C(=O)c1c(O)c(=O)ccn12 (single isomer, unassigned) [Compound 157A]
**A:** > 100 nM

**Q:** What value of CC50 has been reported for the following compound? CC[C@@H]1/C=C/COc2ccccc2[C@@H](c2ccccc2)N2CN1C(=O)c1c(O)c(=O)ccn12 [Compound 39BA]
**A:** > 200 nM

**Q:** Reported CC50, compound COC[C@H]1/C=C/COc2c(ccc(F)c2F)[C@@H](c2ccccc2)N2CN1C(=O)c1c(O)c(=O)ccn12 (single isomer, unassigned) [Compound 153BB] : ____
**A:** > 100 nM
